Biological target: SIRT6 enzyme (Homo sapiens)
Assay: Measurement of deacetylation activity (SIRT6, AlphaLISA, H3K9(Ac) peptide)
Assay type: biochemical
Details: SIRT6 25 ng/mL, H3K9(Ac) biotin peptide 2 nM, NAD 10 μM, room temperature 30 minutes, duplicate
For each record, check the reported EC150 (the concentration of the compound showing a relative enzyme activity of 150%): if it is below 1 μm write Yes, else write No.

Input: Is it true that EC150 (the concentration of the compound showing a relative enzyme activity of 150%) reported for O=C(Nc1nc2c(s1)[C@@H]1COC[C@H](C2)N1c1ncc(-c2cccc(C(F)F)c2)o1)N[C@H]1C[C@H](O)C1 is less than 1 μm?
Output: Yes

Input: Is it true that EC150 (the concentration of the compound showing a relative enzyme activity of 150%) reported for O=C(Nc1nc2c(s1)CN(c1nc(C3CC(F)(F)CCO3)no1)CC2)N[C@@H]1CCOC1 (stereo partly shown) is less than 1 μm?
Output: No

Input: Is it true that EC150 (the concentration of the compound showing a relative enzyme activity of 150%) reported for O=C(Nc1nc2c(s1)[C@@H]1COC[C@H](C2)N1c1ncc(-c2cccc(OC(F)F)n2)o1)N[C@@H]1COC[C@H]1O is less than 1 μm?
Output: Yes

Others:
Input: Is it true that EC150 (the concentration of the compound showing a relative enzyme activity of 150%) reported for CNC(=O)Nc1nc2c(s1)C1COCC(C2)N1c1nnc(-c2cccc(OC(C)(C)C)c2)o1 (stereo not shown) is less than 1 μm?
Output: No

Input: Is it true that EC150 (the concentration of the compound showing a relative enzyme activity of 150%) reported for CC(C)(O)CNC(=O)Nc1nc2c(s1)[C@@H]1COC[C@H](C2)N1c1nc2cc(C#N)c(F)cc2o1 is less than 1 μm?
Output: No

Input: Is it true that EC150 (the concentration of the compound showing a relative enzyme activity of 150%) reported for C[C@@H](O)CNC(=O)Nc1nc2c(s1)C1COCC(C2)N1c1nc(-c2ccc(F)cc2)no1 (stereo partly shown) is less than 1 μm?
Output: No

Input: Is it true that EC150 (the concentration of the compound showing a relative enzyme activity of 150%) reported for CNC(=O)Nc1nc2c(s1)[C@H]1CN(CCO)C[C@@H](C2)N1c1nc(-c2ccc(F)cc2)no1 is less than 1 μm?
Output: No

Input: Is it true that EC150 (the concentration of the compound showing a relative enzyme activity of 150%) reported for O=C(Nc1nc2c(s1)[C@@H]1COC[C@H](C2)N1c1ncc(-c2cccc(OC(F)F)n2)o1)NC1CCS(=O)(=O)CC1 is less than 1 μm?
Output: Yes

Input: Is it true that EC150 (the concentration of the compound showing a relative enzyme activity of 150%) reported for COc1cccc(-c2cnc(N3[C@@H]4COC[C@H]3c3sc(NC(=O)N[C@H]5CC[C@H](O)CC5)nc3C4)o2)n1 is less than 1 μm?
Output: Yes

Input: Is it true that EC150 (the concentration of the compound showing a relative enzyme activity of 150%) reported for O=C(Nc1nc2c(s1)CN(c1nccc(C3CCCOC3)n1)CC2)N[C@H]1C[C@H](O)C1 (stereo partly shown) is less than 1 μm?
Output: Yes

Input: Is it true that EC150 (the concentration of the compound showing a relative enzyme activity of 150%) reported for O=C(Nc1nc2c(s1)[C@@H]1COC[C@H](C2)N1c1nc(-c2ccc(F)cc2)no1)N[C@H]1C[C@H](O)C1 is less than 1 μm?
Output: Yes

Input: Is it true that EC150 (the concentration of the compound showing a relative enzyme activity of 150%) reported for O=C(Nc1nc2c(s1)[C@@H]1COC[C@H](C2)N1c1cc(-c2ccc(F)cc2)on1)N[C@H]1C[C@@H](O)C1 is less than 1 μm?
Output: No

Input: Is it true that EC150 (the concentration of the compound showing a relative enzyme activity of 150%) reported for O=C(Nc1nc2c(s1)[C@@H]1COC[C@H](C2)N1c1cc(-c2ccc(F)cc2)on1)NC1CCOCC1 is less than 1 μm?
Output: Yes

Input: Is it true that EC150 (the concentration of the compound showing a relative enzyme activity of 150%) reported for O=C(Nc1nc2c(s1)CN(c1nc(C3CCC(F)(F)CC3)no1)CC2)N[C@@H]1CCC[C@H]1O is less than 1 μm?
Output: Yes

Input: Is it true that EC150 (the concentration of the compound showing a relative enzyme activity of 150%) reported for COc1cccc(-c2cnc(N3[C@@H]4COC[C@H]3c3sc(NC(=O)NC5CCOCC5)nc3C4)o2)n1 is less than 1 μm?
Output: Yes

Input: Is it true that EC150 (the concentration of the compound showing a relative enzyme activity of 150%) reported for CCNC(=O)Nc1nc2c(s1)C1CN(C(C)=O)CC(C2)N1c1nc(-c2ccc(F)cc2)no1 (stereo not shown) is less than 1 μm?
Output: Yes

Input: Is it true that EC150 (the concentration of the compound showing a relative enzyme activity of 150%) reported for COc1cccc(-c2cc(N3[C@@H]4COC[C@H]3c3sc(NC(=O)NC5CCOCC5)nc3C4)no2)n1 is less than 1 μm?
Output: No

Input: Is it true that EC150 (the concentration of the compound showing a relative enzyme activity of 150%) reported for CNC(=O)Nc1nc2c(s1)C1CN(C(=O)OC(C)C)CC(C2)N1c1nc(-c2ccc(F)cc2)no1 (stereo not shown) is less than 1 μm?
Output: Yes

====

Target: SIRT6 enzyme (Homo sapiens, UniProt Q8N6T7)
Sequence (Q8N6T7 whole entry, species assumed): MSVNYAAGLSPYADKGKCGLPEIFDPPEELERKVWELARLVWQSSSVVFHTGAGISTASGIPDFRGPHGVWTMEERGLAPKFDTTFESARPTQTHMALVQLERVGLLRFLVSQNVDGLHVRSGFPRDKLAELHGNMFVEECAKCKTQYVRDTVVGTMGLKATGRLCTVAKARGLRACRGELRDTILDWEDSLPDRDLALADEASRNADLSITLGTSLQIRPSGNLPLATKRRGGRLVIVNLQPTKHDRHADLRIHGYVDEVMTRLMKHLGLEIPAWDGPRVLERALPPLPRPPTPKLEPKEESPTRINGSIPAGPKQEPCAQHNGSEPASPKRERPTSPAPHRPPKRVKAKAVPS
Test: Measurement of deacetylation activity (SIRT6, AlphaLISA, H3K9(Ac) peptide)
Type: biochemical
Conditions: SIRT6 25 ng/mL, H3K9(Ac) biotin peptide 2 nM, NAD 10 μM, room temperature 30 minutes, duplicate
Measured EC150 (the concentration of the compound showing a relative enzyme activity of 150%) accompanies every entry in the list below.
Give the value; after it, write the unit.

Known EC150 (the concentration of the compound showing a relative enzyme activity of 150%) results, listed for orientation:
The reported value for CNC(=O)Nc1nc2c(s1)[C@@H]1COC[C@H](C2)N1c1nnc(-c2cccc(OC)c2)o1 in terms of EC150 (the concentration of the compound showing a relative enzyme activity of 150%) is 2.4 μm

The reported value for CCOc1cccc(-c2cnc(N3[C@@H]4COC[C@H]3c3sc(NC(=O)N[C@H](C)CO)nc3C4)o2)n1 in terms of EC150 (the concentration of the compound showing a relative enzyme activity of 150%) is 1 μm

The reported value for CC(C)(O)CNC(=O)Nc1nc2c(s1)[C@@H]1COC[C@H](C2)N1c1cc(-c2ccc(F)cc2)on1 in terms of EC150 (the concentration of the compound showing a relative enzyme activity of 150%) is 2.3 μm

As a next step, examine the compound that follows.
The reported value for COc1ccc2oc(N3[C@@H]4COC[C@H]3c3sc(NC(=O)N[C@H]5CCOC5)nc3C4)nc2c1 in terms of EC150 (the concentration of the compound showing a relative enzyme activity of 150%) is 0.78 μm

====

Molecular target: SIRT6 enzyme (Homo sapiens)
Assay: Measurement of deacetylation activity (SIRT6, AlphaLISA, H3K9(Ac) peptide)
Format: biochemical
Conditions: SIRT6 25 ng/mL, H3K9(Ac) biotin peptide 2 nM, NAD 10 μM, room temperature 30 minutes, duplicate
Label scheme for EC150 (the concentration of the compound showing a relative enzyme activity of 150%): lower than 1 μm is n, 1 μm and above is y.

Check out these entries, answers already filled in.
Input: Entry COc1cccc(-c2cc(N3[C@@H]4COC[C@H]3c3sc(NC(=O)N[C@@H]5CCOC5)nc3C4)no2)c1 [Example 164] : is its EC150 (the concentration of the compound showing a relative enzyme activity of 150%) no less than 1 μm?
Output: y

Input: Entry CC(C)OC(=O)N1CC2Cc3nc(NC(=O)NC4CCOCC4)sc3C(C1)N2c1nc(-c2ccc(F)cc2)no1 (stereo not shown) [Example 143] : is its EC150 (the concentration of the compound showing a relative enzyme activity of 150%) no less than 1 μm?
Output: n

Input: Entry CNC(=O)Nc1nc2c(s1)CN(c1nc(C3CCCC(F)(F)C3)no1)CC2 (stereo not shown) [Example 36] : is its EC150 (the concentration of the compound showing a relative enzyme activity of 150%) no less than 1 μm?
Output: y

Input: Entry C[C@@H](CO)NC(=O)Nc1nc2c(s1)[C@@H]1COC[C@H](C2)N1c1ncc(-c2cccc(OC(F)F)c2)o1 [Example 173] : is its EC150 (the concentration of the compound showing a relative enzyme activity of 150%) no less than 1 μm?
Output: n

Input: Entry O=C(Nc1nc2c(s1)[C@@H]1COC[C@H](C2)N1c1cc(C2CCC(F)(F)CC2)on1)N[C@@H]1CCOC1 [Example 157] : is its EC150 (the concentration of the compound showing a relative enzyme activity of 150%) no less than 1 μm?
Output: y

Others:
Input: Entry CC(C)(O)CNC(=O)Nc1nc2c(s1)CN(c1nc(C3CCCC(F)(F)C3)no1)CC2 (stereo not shown) [Example 28] : is its EC150 (the concentration of the compound showing a relative enzyme activity of 150%) no less than 1 μm?
Output: y

Input: Entry C[C@H](CO)NC(=O)Nc1nc2c(s1)CN(c1nc(C(C)(C)OCC(F)(F)F)no1)CC2 [Example 91] : is its EC150 (the concentration of the compound showing a relative enzyme activity of 150%) no less than 1 μm?
Output: n

Input: Entry C[C@H](CO)NC(=O)Nc1nc2c(s1)[C@@H]1COC[C@H](C2)N1c1ncc(-c2cccc(OC(F)F)c2)o1 [Example 70] : is its EC150 (the concentration of the compound showing a relative enzyme activity of 150%) no less than 1 μm?
Output: n

Input: Entry COc1cccc(-c2cc(N3[C@@H]4COC[C@H]3c3sc(NC(=O)N[C@H]5CCOC5)nc3C4)no2)n1 [Example 162] : is its EC150 (the concentration of the compound showing a relative enzyme activity of 150%) no less than 1 μm?
Output: y
